Assay: Stability of reconstituted topotecan solution further diluted in D5W or NS in plastic bags at room temperature
Assay type: physicochemical
Settings: ns, 24 hrs, 0.1 mg/ml, read-out: Percentage of Initial Topotecan Remaining in Solution
Method: Topotecan is currently undergoing Phase I clinical investigation. The following pharmaceutical information is being supplied to the clinicians: • How supplied - As a vial containing 5 mg (of the base) with 100 mg mannitol. The pH is adjusted to 3.0 with HCl/NaOH. Lyophilized powder is light yellow in color. […]
value.kind: remaining at 24 h (%)
Supply the numeric figure in %, leaving out any unit text.

[Q] Any idea what remaining at 24 h was measured for CC[C@@]1(O)C(=O)OCc2c1cc1n(c2=O)Cc2cc3c(CN(C)C)c(O)ccc3nc2-1 ?
[A] 98.3

----------
assay: Stability of reconstituted topotecan solution further diluted in D5W or NS in plastic bags at room temperature; type: physicochemical; settings: ns, 48 hrs, 0.1 mg/ml, read-out: Percentage of Initial Topotecan Remaining in Solution
value.kind: remaining at 48 h (%)
Supply the numeric figure in %, leaving out any unit text.

[Q] Any idea what remaining at 48 h was measured for CC[C@@]1(O)C(=O)OCc2c1cc1n(c2=O)Cc2cc3c(CN(C)C)c(O)ccc3nc2-1 [Topotecan] ?
[A] 98.3

----------
test: Hang-bag stability of topotecan diluted in saline or dextrose; assay type: physicochemical; conditions: saline, 10 ug/ml, read-out: recovery
value.kind: remaining at 24 h

[Q] Any idea what remaining at 24 h was measured for CC[C@@]1(O)C(=O)OCc2c1cc1n(c2=O)Cc2cc3c(CN(C)C)c(O)ccc3nc2-1 [Topotecan] ?
[A] ≥ 95%

----------
test: Stability of reconstituted topotecan solution further diluted in D5W or NS in plastic bags at room temperature; type: physicochemical; conditions: ns, 6 hrs, 0.02 mg/ml, read-out: Percentage of Initial Topotecan Remaining in Solution
value.kind: remaining at 6 h (%)
Supply the numeric figure in %, leaving out any unit text.

[Q] Any idea what remaining at 6 h was measured for CC[C@@]1(O)C(=O)OCc2c1cc1n(c2=O)Cc2cc3c(CN(C)C)c(O)ccc3nc2-1 [Topotecan] ?
[A] 98.6

----------
assay: Stability of reconstituted topotecan solution further diluted in D5W or NS in plastic bags at room temperature; format: physicochemical; conditions: d5w, 48 hrs, 0.02 mg/ml, read-out: Percentage of Initial Topotecan Remaining in Solution
value.kind: remaining at 48 h (%)
Supply the numeric figure in %, leaving out any unit text.

[Q] Any idea what remaining at 48 h was measured for CC[C@@]1(O)C(=O)OCc2c1cc1n(c2=O)Cc2cc3c(CN(C)C)c(O)ccc3nc2-1 ?
[A] 102

----------
experiment: Stability of reconstituted topotecan solution further diluted in D5W or NS in plastic bags at room temperature; type: physicochemical; settings: d5w, 24 hrs, 0.02 mg/ml, read-out: Percentage of Initial Topotecan Remaining in Solution
value.kind: remaining at 24 h

[Q] Any idea what remaining at 24 h was measured for CC[C@@]1(O)C(=O)OCc2c1cc1n(c2=O)Cc2cc3c(CN(C)C)c(O)ccc3nc2-1 [Topotecan] ?
[A] 102%

----------
experiment: Stability of reconstituted topotecan solution further diluted in D5W or NS in plastic bags at room temperature; format: physicochemical; conditions: d5w, 6 hrs, 0.1 mg/ml, read-out: Percentage of Initial Topotecan Remaining in Solution
value.kind: remaining at 6 h (%)
Supply the numeric figure in %, leaving out any unit text.

[Q] Any idea what remaining at 6 h was measured for CC[C@@]1(O)C(=O)OCc2c1cc1n(c2=O)Cc2cc3c(CN(C)C)c(O)ccc3nc2-1 ?
[A] 99.7

----------
experiment: Stability of reconstituted topotecan solution further diluted in D5W or NS in plastic bags at room temperature; type: physicochemical; details: ns, 24 hrs, 0.02 mg/ml, read-out: Percentage of Initial Topotecan Remaining in Solution
value.kind: remaining at 24 h (%)
Supply the numeric figure in %, leaving out any unit text.

[Q] Any idea what remaining at 24 h was measured for CC[C@@]1(O)C(=O)OCc2c1cc1n(c2=O)Cc2cc3c(CN(C)C)c(O)ccc3nc2-1 ?
[A] 96

----------
Assay: Stability of reconstituted topotecan solution further diluted in D5W or NS in plastic bags at room temperature
Assay type: physicochemical
Conditions: d5w, 24 hrs, 0.1 mg/ml, read-out: Percentage of Initial Topotecan Remaining in Solution
Protocol: Topotecan is currently undergoing Phase I clinical investigation. The following pharmaceutical information is being supplied to the clinicians: • How supplied - As a vial containing 5 mg (of the base) with 100 mg mannitol. The pH is adjusted to 3.0 with HCl/NaOH. Lyophilized powder is light yellow in color. […]
value.kind: remaining at 24 h (%)
Supply the numeric figure in %, leaving out any unit text.

[Q] Any idea what remaining at 24 h was measured for CC[C@@]1(O)C(=O)OCc2c1cc1n(c2=O)Cc2cc3c(CN(C)C)c(O)ccc3nc2-1 [Topotecan] ?
[A] 98.2

----------
experiment: Stability of reconstituted topotecan solution further diluted in D5W or NS in plastic bags at room temperature; format: physicochemical; details: d5w, 6 hrs, 0.02 mg/ml, read-out: Percentage of Initial Topotecan Remaining in Solution
value.kind: remaining at 6 h
Give me the value, and tack the unit on after it.

[Q] Any idea what remaining at 6 h was measured for CC[C@@]1(O)C(=O)OCc2c1cc1n(c2=O)Cc2cc3c(CN(C)C)c(O)ccc3nc2-1 ?
[A] 99.3%

----------
test: Stability of reconstituted topotecan solution further diluted in D5W or NS in plastic bags at room temperature; assay type: physicochemical; settings: ns, 6 hrs, 0.1 mg/ml, read-out: Percentage of Initial Topotecan Remaining in Solution
value.kind: remaining at 6 h (%)
Supply the numeric figure in %, leaving out any unit text.

[Q] Any idea what remaining at 6 h was measured for CC[C@@]1(O)C(=O)OCc2c1cc1n(c2=O)Cc2cc3c(CN(C)C)c(O)ccc3nc2-1 [Topotecan] ?
[A] 97.7

----------
assay: Hang-bag stability of topotecan diluted in saline or dextrose; format: physicochemical; conditions: dextrose, 6.7 ug/ml, read-out: recovery
value.kind: remaining at 24 h

[Q] Any idea what remaining at 24 h was measured for CC[C@@]1(O)C(=O)OCc2c1cc1n(c2=O)Cc2cc3c(CN(C)C)c(O)ccc3nc2-1 ?
[A] ≥ 95%
